Provenance of the data: a melting point compilation (Tetko et al.; mined from patent text by program, amines drawn as free bases though some values may be those of a salt)

PROPERTY_LABEL: melting point

# example entries with known answers
{"MOLECULE": "CN1C(=O)C(c2ccc(OC(F)(F)F)c(F)c2)(c2ccc(F)c(-c3cncnc3)c2)N=C1N (stereo not given)", "OBS_VALUE": "102 to 110 °C"}
{"MOLECULE": "O=C(NCc1ccc(Br)cc1)c1c(F)cccc1F", "OBS_VALUE": "142 °C"}
{"MOLECULE": "N#Cc1cccc(CC(NC(=O)c2cc3cc(Cl)ccc3[nH]2)C(=O)N2CCSC2)c1 (stereo not given)", "OBS_VALUE": "183 to 184 °C"}
{"MOLECULE": "CN1C2C=C(c3c[nH]c4ccc(NC(=N)c5cccs5)cc34)CC1CC2 (stereo not given)", "OBS_VALUE": "93 to 95 °C"}

Count: 3. Required value per item: melting point.
1. Cc1csc2nc(COc3ccccc3)cn12
2. CC(=NNc1ccc([N+](=O)[O-])cc1)N1CCOCC1
3. CC(C)Oc1cc(CCCO)n(Cc2ccc(Cl)cc2Cl)n1

1. 190 to 192 °C
2. 176 °C
3. 51 to 52 °C

====

Task for the reader: assign each of the following compounds its reported melting point.

{"COMPOUND": "CC1(C)C(=O)N(c2ccc(C#N)c(C(F)(F)F)c2)C(=S)N1CCF", "melting point": "135 °C"}

Count: 4. Required value per item: melting point.
1. OCCC#Cc1ncccn1
2. COC(=O)c1ccc(Cc2cc3cc(C(F)(F)F)ccc3n2S(=O)(=O)c2ccc(C(C)C)cc2)cc1
3. CC(=O)NC1=NN(c2ccc(F)cc2)C(C)C1 (stereo not drawn)
4. O=C(O)c1ccccc1Oc1ccc(C(F)(F)F)cc1NS(=O)(=O)c1ccc(Cl)cc1

1. 58 to 64 °C
2. 123 °C
3. 136 to 138 °C
4. 164 °C

====

Task for the reader: assign each of the following compounds its reported melting point.

# example entries with known answers
{"SMILES_REPR": "CCOc1cccc2cc(C(=O)NNS(=O)(=O)c3ccccc3)oc12", "OBS_VALUE": "223 to 224 °C"}
{"SMILES_REPR": "CC(C)c1nn(-c2ccc(C(F)(F)F)cn2)cc1CCCOc1cc(CCC(=O)O)n(C)n1", "OBS_VALUE": "131 to 132 °C"}

Would you mind telling me what melting point value was observed for `CCOC(=O)c1ncc(-c2cccs2)s1` ?
68 to 69 °C

====

PROPERTY_LABEL: melting point

# example entries with known answers
{"MOLECULE": "CCOC(=O)CC(=O)N=C(SC)N(C)N=Cc1ccccc1", "OBS_VALUE": "74 to 75 °C"}
{"MOLECULE": "CCc1c(OC)cc(C2CN(C)CC/C2=C\\C(=O)OC)cc1OC (stereo unspecified)", "OBS_VALUE": "110 to 112 °C"}
{"MOLECULE": "CCOCc1nc2c(N)nc3cc(OCc4cscn4)ccc3c2n1CC(C)(C)O", "OBS_VALUE": "190 to 191 °C"}
{"MOLECULE": "NC(=O)C1(O)c2ccccc2S(=O)(=O)N1Cc1ccc(Br)cc1F (stereo unspecified)", "OBS_VALUE": "182 to 184 °C"}
{"MOLECULE": "Cc1c(C)c2c(c(C)c1NC(=O)CC(C)(C)C)C(c1ccc(Br)cc1)C(C)(C)O2 (stereo unspecified)", "OBS_VALUE": "201 to 202 °C"}

Then there is this molecule:
Would you mind telling me what melting point value was observed for `Cc1ccc(-c2coc3c(C)c(C)cc(C)c23)nc1` ?
134 to 135 °C
